assay: amyloid nucleation score (Sup35N fusion, yeast selection) (log enrichment); library NNK2; higher = more nucleation; inactive = no reads after selection;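 note: zero at mode of non-aggregating sequences after 7 days selection at 30°C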
Could you please report measured amyloid nucleation score for the items listed next?
Answers are plain numbers.

Below, 3 substances whose answers are already recorded.
Substance | Recorded value
AVVGDMGIC | -0.511
CASVSQGPKQLLPPNVTGLY | -0.176
FSRGDIVA | 4.41

Provide reported amyloid nucleation score for each item, in the same order as listed.
1. MFSESE
2. PWALTFNHCKIDDTKRGHIV
3. RISRFMPCSRS
4. KTGESMVNPIARMWLR
5. FCWSCWLFQDCSYVVIGREV
6. GKTYVGYFLFNLTGTVYFKR
7. MQAMRRGQKYKSGRVIYVRG

1. -0.275
2. 0.64
3. 1.11
4. 1.51
5. 8.56
6. 0.004
7. -0.554

# batch: return amyloid nucleation score for each of the 5 substances below
1. RAQRLP
2. HFKWNYYSYSVWEWVFEQLH
3. SGVIHSVFVWKCLITGGM
4. RSCMASEYGT
5. TFYSSWWSNSECYCS

1: -0.241; 2: -0.36; 3: -0.711; 4: -0.971; 5: 2.45

Parameters: items (list). Returns: amyloid nucleation score for each item.
1. CNYMSVWN
2. NLPIGLCSAGRFLGNNL
3. RDMWKVNHGNTACIGSYRSV
4. YMVDIGSHYKVCVMFHWTFS

-0.021
0.123
0.671
-0.88

Quick one: give me amyloid nucleation score for each item below, same order please.
1. IARIRILCLL
2. GVHYEKEGVRTSVFSDLSWE
3. RYFINFSSLCHQLDILWRCV
4. WWTIIICNWSVSKGQDDNRA
5. AKLEVQA

[0.234, -0.021, -1.03, 7.24, -0.978]

Consider the substance `SLHRAVYMGVKEYAILTEYG` and give its measured amyloid nucleation score.
0.127
